Protocol description: yeast display, Sf9 membrane polyspecificity reagent, FACS + sequencing; frameworks hold sequencing errors
Experimental endpoint: polyreactivity (PSR sort gate)

Sequence content: QVQLVESGGGLVQAGGSLRLSCAASGRIFRHYAMGWYRQAPWKERELVATITSGGRTNYADSVKGRFTISRDNAKNTVYLQMNSLKPEDTAVYYGAVDTWGSSWYDLFRETSDYWGQGTQVTVSS
Result: low polyreactivity
--
Sequence content: QVQLVESGGGLVQAGGSLRLSCAASGYTILIYAKGWYRQAPGKERELVASISRSGGSTYYADSVKGRFTISRDNAKNTVYLQMNSLKTEDTAVYYCNADFGYDSVVEYDYWGQGTQVTVSS
Result: low polyreactivity
--
Sequence content: QVQLVESGGGLVQAGGSLRLSCAASGLIFSRNAMGWYRQAPGKERELVAAISGGGGSTYYADSVKGRFTISRDNAKNNVYLQMHSLKQEATAVYDCAAKGYWWRTPWIATYDYWGQGTQVTVSS
Result: high polyreactivity
--
Sequence content: QVQLEESGGGLVQAGGSLRLSCAASGSIYTYTMGWYRQAPGKERELVAAISWNGGRTYYADSVKGRFTISRDNAKNTVYLQMNSLKPEDTAVYYCNAAISYSYGYWGQGTQVTVSS
Result: high polyreactivity
--
Sequence content: QVQLVESGGGLVQAGGSLRLSCAASGSTFVQYAMGWYRQAPGKERELVAAITSGGRTNYADSVKGRFTISRDNAKYTVYLQMNSLKPEDTAVYYCAARYGSNSPRGYEYYYWGQGTQVSVSS
Result: low polyreactivity
--
Sequence content: QVQLQESGGGLVLAGGSLRLSCAASGSISAQAYMGWDRQAPGKEREHVAGINYGDNTNYADSVKGRFTISRDNEHRVSADEQPETGRYRGVLLRGFLELFYYYIYWGQGTQVTVSS
Result: high polyreactivity
--
Sequence content: QVQLVESGGGLVQAGGSLRLSCAASGRIFGGNAMGWYRQAPGKERELVAAISKRGGSTYYADSVKGRFTISRDNAKNTVYLQMNSLKPEDTAVYYCAAGFTAWTGVWYGYWGQGTQVTVSS
Result: high polyreactivity
--
Sequence content: QVQLVESGGGLVQAGGSLRLSCAASGRIFVTYAMGWYRQAPGKERELVAVISWSGGSTYYADSVKGRITISRDNAKNTVYLQINSLKPEDTAVYYCARGLRKVRFDYWGQGTQVTVSS
Result: low polyreactivity

Quick request: polyreactivity (PSR sort gate) for each listed item, please.
1. QVQLVESGGGLVQAGGSLRLICAASGSIFDPYAMGWYRQAPGKERELVAAITYSAARTYYADSVKGRFTISRDNAKNTVYLQMNSLKPEDTAVYYFNRVVRREAERYDYWGQGTQVTVSS
2. QVQLVESGGGLVQAGGSLRLSCAASGRTFPYNAMGWYRQAPGKERELVAAISYSGGRTYYADSVKGRFTISRDNAKNTVYLQMNSLKPEDTAVYYCNALGSGREDDYWGQGTQVTVSS
3. QVQLVESGGGLVQAGGSLRLSCAASGRTFGFYTMGWYRPAPGKERELVAAITSRGGITTYADSVKGRFTISRDNAKNTVYLQLNSLIPEDTAVYYCAASLRAPSLGHYYYWGQGTQVTVSS

Given back:
["high polyreactivity", "high polyreactivity", "high polyreactivity"]

* * *

Protocol description: yeast display, Sf9 membrane polyspecificity reagent, FACS + sequencing; frameworks hold sequencing errors
Experimental endpoint: polyreactivity (PSR sort gate)

Sequence content: QVQLEESGGGLVQAGGSLRLSCAASGIIFATYAMGWYRQAPGKDRELVAAISSGGRTYYADSVKGRFTISRDNAKNTVYLQMNSLKPEDTAVYYCAAKSGGRSSLYNYWGQGTQVNVSS
Experimental endpoint: polyreactivity (PSR sort gate)
Result: high polyreactivity

Sequence content: QVQLVESGGGLVQAGGSLRLSCAASGLIFSYYAMGWYRQAPGKERELVAAISWSGGSTYYADSVKGRFTISRDNAKNTVYLQMNSLKPEDTAVYYCAADRISADYDYWGQGTQVTVSS
Experimental endpoint: polyreactivity (PSR sort gate)
Result: low polyreactivity

Sequence content: QVQLVESGGGLVQAGGSLRLSCAASGSTFVNNAMGWSREARGKERELVAAIRSSDGRTYYADSVKGRFTISRDKAKNTVYLQMNSLKPEDTAVDYCATAVGTKYRTRIFEYYYWGQGTQVTVSS
Experimental endpoint: polyreactivity (PSR sort gate)
Result: high polyreactivity

Sequence content: QVQLVESAGGLVQAGGSLRLSCAASGFIFYSNAMGWYRQAPGKERELVAGISRGGSTYYADSVKGRFTISRDNAKNTVYLQMNSLKPEDTAVYYCAASPSSYGRYGYWGQGTQVTVSS
Experimental endpoint: polyreactivity (PSR sort gate)
Result: low polyreactivity

Kindly review the next sequence as well.
Asked: Which measured polyreactivity (PSR sort gate) value corresponds to QVQLVESGGGLVQAGGSLRLSCAASGSIFRRNAMGWYRQAPGKERELVAAISSIGSSTYYADSVKGRFTISRDNAKNTVYLQMNSLKPEDTAVYYCAALYVQGTHTYGYWGQGTQVTVSS ?
Given back: high polyreactivity
